B1: tRNA (parent)
chain: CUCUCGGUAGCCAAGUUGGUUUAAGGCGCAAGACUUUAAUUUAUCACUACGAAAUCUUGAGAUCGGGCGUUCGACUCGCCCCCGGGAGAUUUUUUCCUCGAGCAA

# Variants of: B1
# assay info: nonsense suppression (GFP-seq) (ratio to wild type); higher = more function; SUP4oc tRNA, yeast GFP reporter sort-seq
Fewer inactive variants are shown than the library holds.
Grouping key: nonsense suppression. Bins: interval 1 (below 0.05), interval 2 (0.05 to below 0.8), interval 3 (0.8 or more)

Field: example entries. Status: answers known.
U20C A31U :: interval 2
A30U A89U :: interval 1
A9U C72G :: interval 1
A54G C72A :: interval 1
G61A G69A :: interval 1

Q: Form: Item = A13U A24U ; Class = ?
A: interval 3

Q: Record G10U C12G A31U G32U C68G — which class?
A: interval 1

Q: Into which bin does this variant go? C75G G85U
A: interval 3

Q: Textbook exercise: identify the category of the variant given here, U21A A60G , according to its measured value.
A: interval 2

Q: Band for the recorded nonsense suppression of C1A C11U C12U A14U A62U ?
A: interval 1

Q: Which nonsense suppression band matches A23G U70C ?
A: interval 1

Q: Place this variant in its band: C1G U58C A62U G78U
A: interval 1

Q: Please classify: G28C G73U
A: interval 1

Q: # bin label for C1A A9U C68G U76A C81A
A: interval 1
